Hey, just so you know, these numbers are from PubChem BioAssay AID1963448.

Tested on: 616215-338-R-J1-PDC complex spheroid growth, % test/control;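 also: spheroids exposed to agents for seven days before readout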
Experiment: Anticancer human tumor 616215-338-R-J1-PDC patient-derived colon adenocarcinoma cell line growth inhibition [Asc]; active = viability on the fitted dose curve at most 10% of control; inactive = the rest
Conditions: second compound 0.316 µM; first compound 0.316 µM
Your answer must be one of the following: YES (active), NO (inactive)

Problem: Please share the test call associated with CCN1CCN(Cc2ccc(Nc3ncc(F)c(-c4cc(F)c5nc(C)n(C(C)C)c5c4)n3)nc2)CC1 + Cc1c(S(C)(=O)=O)c(-c2cc(F)cc(N3CCN(c4ccc(NS(=O)(=O)c5ccc(NC(CCN6CCC(C(=O)OCCCP(=O)(O)O)CC6)CSc6ccccc6)c(S(=O)(=O)C(F)(F)F)c5)cc4)CC3)c2)c(-c2ccc(Cl)cc2)n1C(C)C .
Result: NO

Problem: Please share the test call associated with O=C(c1ccc(F)c(F)c1Nc1ccc(I)cc1F)N1CC(O)([C@@H]2CCCCN2)C1 + Cc1c(S(C)(=O)=O)c(-c2cc(F)cc(N3CCN(c4ccc(NS(=O)(=O)c5ccc(NC(CCN6CCC(C(=O)OCCCP(=O)(O)O)CC6)CSc6ccccc6)c(S(=O)(=O)C(F)(F)F)c5)cc4)CC3)c2)c(-c2ccc(Cl)cc2)n1C(C)C .
Result: YES

Problem: Please share the test call associated with O=C(c1cc(Cc2n[nH]c(=O)c3ccccc23)ccc1F)N1CCN(C(=O)C2CC2)CC1 + Cc1c(S(C)(=O)=O)c(-c2cc(F)cc(N3CCN(c4ccc(NS(=O)(=O)c5ccc(NC(CCN6CCC(C(=O)OCCCP(=O)(O)O)CC6)CSc6ccccc6)c(S(=O)(=O)C(F)(F)F)c5)cc4)CC3)c2)c(-c2ccc(Cl)cc2)n1C(C)C .
Result: NO

Problem: Please share the test call associated with C=CC(=O)N1CCN(c2nc(=O)n(-c3c(C)ccnc3C(C)C)c3nc(-c4c(O)cccc4F)c(F)cc23)C(C)C1 (stereo not given) + Cc1c(S(C)(=O)=O)c(-c2cc(F)cc(N3CCN(c4ccc(NS(=O)(=O)c5ccc(NC(CCN6CCC(C(=O)OCCCP(=O)(O)O)CC6)CSc6ccccc6)c(S(=O)(=O)C(F)(F)F)c5)cc4)CC3)c2)c(-c2ccc(Cl)cc2)n1C(C)C .
Result: NO

Problem: Please share the test call associated with O=C(c1ccc(F)c(F)c1Nc1ccc(I)cc1F)N1CC(O)([C@@H]2CCCCN2)C1 + CNC(C)C(=O)NC1CN(S(=O)(=O)c2cccc(S(=O)(=O)N3CCC4CCC(C(=O)NC(c5ccccc5)c5ccccc5)N4C(=O)C(NC(=O)C(C)NC)C3)c2)CCC2CCC(C(=O)NC(c3ccccc3)c3ccccc3)N2C1=O .
Result: YES
